assay: Pharmacokinetic test in mice (IV and PO); type: in vivo; details: mouse, plasma; BALB/c mice, IV 2 mg/kg; read-out: Vz
measure: Vd (L/kg)

Use the examples below as a reference point.
Query: Please look up its Vd: Cc1c2c(nn1C(F)F)c(=O)n(-c1cccc3[nH]ncc13)c1nc(C(F)(F)F)ccc21 [Compound B254]
Response: 0.2

Query: Please look up its Vd: Cn1cc2c(n1)c(=O)n(-c1cccc3[nH]ncc13)c1cc(Cl)c(F)cc21 [Compound B257]
Response: 0.8

Query: Please look up its Vd: Cn1cc2c(n1)c(=O)n(-c1cccc3[nH]ncc13)c1cc(Cl)c(C#N)cc21 [Compound B258]
Response: 2.6

Query: Please look up its Vd: Cn1cc2c(n1)c(=O)n(-c1cccc3[nH]ncc13)c1nc(C(F)(F)F)ccc21 [Compound B181]
Response: 1.4

Query: Please look up its Vd: Cn1cc2c(n1)c(=O)n(-c1cccnc1C1CC1)c1cc(Cl)c(F)cc21 [Compound B340]
Response: 1.58

1: CCn1nc2c(=O)n(-c3cccnc3)c3cc(Cl)ccc3c2c1C [Compound B17]
2: Cn1cc2c(n1)c(=O)n(-c1cccnc1)c1cc(Cl)ccc21 [Compound B12]
Query: From the recorded data, which exceeds the other in Vd: 1 or 2 ? Bench note: the answer is the label of the chosen record.
Response: 2
